Tested on: RXF 393 renal
Assay: NCI-60 one-dose screen, 48 h (100 = growth as untreated, 0 = no growth, -100 = all killed)
Conditions: 10 µM unless noted
This is part of a sample that, as a whole, favours compounds with a hit. Of some 83,000 tested, about 20% had one in any assay.
measuredEndpoint: growth (%)
Only the number, expressed in %, is required.

INSERT INTO measurements (compound, measuredendpoint, reportedresult) VALUES
  ('O=C1CC(c2nc3ccccc3[nH]2)CN1C1CCCCC1 (stereo unspecified)', 'growth', 111),
  ('COc1ccc(C(=O)c2sc3nc4c(c(C(F)(F)F)c3c2N)CN(C(C)=O)CC4)cc1OC', 'growth', 74.7),
  ('COc1ccc(C(=O)/C=C/c2c[n+](=O)c3ccc(F)cc3n2[O-])cc1', 'growth', 129),
  ('C=CCSc1nnc(-c2ccc(C(C)(C)C)cc2)n1-c1cccc(C(F)(F)F)c1', 'growth', 18.1),
  ('NC1=CC(=O)C(=O)c2ccccc21', 'growth', 100);

// moving on: another record for growth
Recall and state the measured growth for CCC(c1ccc(O)cc1)C(CC)c1ccc(O)c(F)c1 (stereo unspecified) .
92.6

###

Tested on: SF-539 CNS
Assay: NCI-60 one-dose screen, 48 h (100 = growth as untreated, 0 = no growth, -100 = all killed)
Conditions: 10 µM unless noted
The panel holds about 83,000 compounds, 20% with a hit somewhere; the sample as a whole holds those more often.
measuredEndpoint: growth (%)
Only the number, expressed in %, is required.

INSERT INTO assay_data (compound, measuredendpoint, unitlabel, reportedresult) VALUES
  ('CCN(CC)CCCNc1cccc2c(SCc3ccccc3)ccnc12', 'growth', '%', 81.4),
  ('COc1ccc(-c2cn3c(-c4ccc(OC)cc4)cnc3c(Oc3ccc4c(C)cc(=O)oc4c3)n2)cc1', 'growth', '%', -21.1),
  ('O=C(Cn1cc(CN2C(=O)c3ccccc3S2(=O)=O)nn1)Nc1ccc([N+](=O)[O-])cc1Cl', 'growth', '%', 101),
  ('COc1nc2c(cc1S(=O)(=O)c1ccccc1)CCc1c-2cnn1Cc1ccccc1', 'growth', '%', 73.7),
  ('CCCCOc1ccc(NC(=O)n2nc(NC(C)=O)c3cc(NC(C)=O)ccc32)cc1', 'growth', '%', 95);

Recall and state the measured growth for O=C1OC2C(I)C3CC2C1C3c1ccccc1 (stereo not given) .
94.1

Recall and state the measured growth for COc1cccc(-c2nc3sccn3c2-c2ccnc(NCCCNS(=O)(=O)c3ccc(Cl)cc3)c2)c1 .
66.7

Recall and state the measured growth for Fc1ccc(Cc2ccc(F)cc2)cc1 .
102

Recall and state the measured growth for C=CC[N+]1(CCO)CCN=C1CCCCCCCCCCCCC (stereo not given) .
-96.6

Recall and state the measured growth for COc1cc2c(=O)n(CC3CCCCC3)c3c4cc[nH]c4ncc3c2cc1OC .
-7.56

###

Tested on: CCRF-CEM leukemia
Experiment: NCI-60 one-dose screen, 48 h
Settings: 10 µM unless noted
The panel holds about 83,000 compounds, 20% with a hit somewhere; the sample as a whole holds those more often. Calls of active or inactive are those of the source. How the source made its calls: active means growth percent below 10; inactive means the rest.
Field 'call' accepts true (1) for active, false (0) for inactive

Some solved entries appear below for comparison.
INSERT INTO measurements (smi, categorylabel) VALUES
  ('C=C1C(=O)O[C@H]2[C@H]1CC/C(Cn1cc(Cc3c[nH]c4ccccc34)nn1)=C\CC[C@@]1(C)O[C@@H]21', 'true (1)'),
  ('COc1ccc(-c2c(C)noc2-c2ccc(O)cc2O)cc1', 'false (0)');

Per the assay record, what outcome was assigned to CCOC(=O)C(=Cc1ccccc1F)C(=O)OCC ?
false (0)

These data points were gathered from PubChem BioAssay (NCI).
